The values you see were collected from patent US12590124B2.

Test system: SARS-CoV-2
Conditions: 1 h, 2.5 mM
Where no end group is shown, it is not given here.
recorded.endpoint: Inhibition rate (%)
Provide the reading as a plain figure in %.

substance	reading.unit	result.value
KYLLVHRPYYRR [SEQ ID NO: 3, KYLLVHRPYYRR]	%	98
RSYMTTHHEQF [SEQ ID NO: 1, RSYMTTHHEQF]	%	21
KFNRRHH [SEQ ID NO: 2, KFNRRHH]	%	51

Consider the additional substance presented here.
What value of Inhibition rate on SARS-CoV-2 does WVPYQARVPYPR [SEQ ID NO: 4, WVPYQARVPYPR] have?
55
